Biological target: human Glucose-dependent Insulinotropic Polypeptide Receptor (hGIPR) (Homo sapiens, UniProt P48546)
Sequence (P48546 22-466): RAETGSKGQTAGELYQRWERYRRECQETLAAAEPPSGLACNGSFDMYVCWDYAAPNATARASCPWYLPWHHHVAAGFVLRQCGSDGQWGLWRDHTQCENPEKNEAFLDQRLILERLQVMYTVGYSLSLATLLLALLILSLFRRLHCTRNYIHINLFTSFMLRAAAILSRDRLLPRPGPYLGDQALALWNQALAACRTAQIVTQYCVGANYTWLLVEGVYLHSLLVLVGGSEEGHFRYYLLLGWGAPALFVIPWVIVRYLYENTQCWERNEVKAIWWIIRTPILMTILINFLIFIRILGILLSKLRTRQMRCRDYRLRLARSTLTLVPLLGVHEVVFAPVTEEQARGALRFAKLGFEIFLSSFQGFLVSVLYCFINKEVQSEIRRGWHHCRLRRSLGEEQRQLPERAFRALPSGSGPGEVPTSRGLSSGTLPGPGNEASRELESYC
Test: Functional in vitro GIPR antagonist potency assay (cAMP HTRF, CHO-K1 cells stably expressing hGIPR, hGIP stimulation at about EC80)
Conditions: geometric mean, hGIP at estimated EC80, examples marked ^2: overall geometric mean of multiple forms (including salts) tested
Measured endpoint: IC50 (nM)
Give just the number in nM; leave the unit off.

compound=Cc1cc(-c2ccc(NC(=O)[C@H]3CCCN3C(=O)Nc3ccc(C(F)(F)F)cc3)cc2)ccc1C(=O)O measured_endpoint=IC50 recorded_result=7.4
compound="CC[C@H]1CCN(C(=O)Nc2ccc(C(C)C)cc2)[C@H]1C(=O)Nc1ccc(-c2ccc(C(=O)O)cc2)cc1 (single isomer, unassigned)" measured_endpoint=IC50 recorded_result=4.6
compound=Cc1cc(NC(=O)N2CCC[C@@H]2C(=O)Nc2ccc(-c3ccc(C(=O)O)cc3)nc2)ccc1C(F)(F)F measured_endpoint=IC50 recorded_result=19

Per the record, Cc1cc(NC(=O)[C@H]2CCCN2C(=O)Nc2ccc(C(C)C)cc2)ccc1-c1ccc(C(=O)O)cc1 has IC50 of 9.9

Per the record, CC(C)(C)c1ccc(NC(=O)N2CCC[C@@H]2C(=O)Nc2ccc(-c3ccc(C(=O)O)cc3)cc2)cc1 has IC50 of 24

Per the record, CC(c1ccc(NC(=O)N2CCC[C@@H]2C(=O)Nc2ccc(-c3ccc(C(=O)O)cc3)cc2)cc1)C(F)(F)F (some centres unmarked) has IC50 of 13

Per the record, Cc1cc(NC(=O)N2CCC[C@@H]2C(=O)Nc2ccc(-c3ccc(C(=O)O)nc3)cc2)ccc1C(C)C has IC50 of 11

Per the record, CC(C)c1ccc(NC(=O)N2CCC[C@@H]2C(=O)Nc2ccc(-c3cc(F)c(C(=O)O)cc3F)cc2)cc1 has IC50 of 27

Per the record, CC(C)c1ccc(NC(=O)N2CCC[C@@H]2C(=O)Nc2ccc3c(n2)CC[C@@H](C(=O)O)C3)cc1F (single isomer, unassigned) [Example 228] has IC50 of 36

Per the record, Cc1ccc(CNC(=O)N2CCC[C@@H]2C(=O)Nc2ccc(-c3ccc(C(=O)O)cc3)cc2)cc1F has IC50 of 14

Per the record, CC(C)(C)c1ccc(CNC(=O)N2CCC[C@@H]2C(=O)Nc2ccc(-c3ccc(C(=O)O)cc3)cc2)cc1 has IC50 of 19

Per the record, O=C(O)c1ccc(-c2ccc(NC(=O)[C@H]3CCCN3C(=O)Nc3ccc(C4CC4)cc3)cc2)cn1 has IC50 of 99

Per the record, O=C(O)c1ccc(-c2ccc(NC(=O)[C@H]3CCCN3C(=O)NCc3ccc(Cl)c(Cl)c3)cc2)cc1 has IC50 of 12

Per the record, Cc1cc(NC(=O)[C@H]2CCCN2C(=O)Nc2ccc(C(C)C)c(F)c2)ccc1-c1ccc(C(=O)O)cc1 has IC50 of 2.9
